system: mouse SGLT2 mRNA; test: Mouse SGLT2 mRNA in kidney, 1-10-1 MOE gapmers, Balb/c mice (Table 65); assay type: in vivo; details: 450 nmol/kg i.p. twice per week for two weeks
Strand notation (5' to 3'): a small letter for the sugar, then the base; units joined by * are phosphorothioate-linked, units joined directly phosphodiester-linked; [ ] holds rarer units or linkages, { } end groups; capitals alone tell only the bases. e = 2'-O-(2-methoxyethyl) (MOE); [5mC] = 5-methylcytosine; d = 2'-deoxy (DNA)
This section presents substances with their documented % change in SGLT2 expression relative to saline values.
The answer is to be given in %; state only the numeric part.

The following substances have reported results that may help.
{"columns": ["substance", "quantitative result"],
 "data": [
  ["ISIS 379702 (eG*d[5mC]*dA*d[5mC]*dA*d[5mC]*dA*dG*d[5mC]*dT*dG*e[5mC])", "−75"],
  ["ISIS 379692: 1-10-1 MOE gapmer, SGLT2 (eT*dG*dT*dT*d[5mC]*d[5mC]*dA*dG*d[5mC]*d[5mC]*d[5mC]*eA)", "−80"],
  ["ISIS 379699: GGCATGAGCTTC 1-10-1 MOE, SGLT2 (eG*dG*d[5mC]*dA*dT*dG*dA*dG*d[5mC]*dT*dT*e[5mC])", "−80"]
]}

Kindly consider the entry below.
## Task Can you share its % change in SGLT2 expression relative to saline? I mean this substance: ISIS 370717: TAGCCACCAACT 1-10-1 MOE gapmer, phosphorothioate, SGLT-2 (sugars from the 5' end e1 d10 e1, all phosphorothioate, methylation of C not given here)
## Result −65

----------
tested on: mouse SGLT2 mRNA; test: Mouse SGLT2 mRNA in kidney, additional 1-10-1 and 2-8-2 MOE gapmers (Table 68); type: in vivo; details: 0.1 umol/kg i.p. twice per week for three weeks, Balb/c mouse kidney
Strand notation (5' to 3'): a small letter for the sugar, then the base; units joined by * are phosphorothioate-linked, units joined directly phosphodiester-linked; [ ] holds rarer units or linkages, { } end groups; capitals alone tell only the bases. e = 2'-O-(2-methoxyethyl) (MOE); [5mC] = 5-methylcytosine; d = 2'-deoxy (DNA)
reported endpoint: % change in SGLT2 expression relative to saline

Example substances with recorded % change in SGLT2 expression relative to saline:
{"columns": ["substance", "result"],
 "data": [
  ["ISIS 388627 (eG*e[5mC]*dA*d[5mC]*dA*d[5mC]*dA*dG*d[5mC]*dT*eG*e[5mC])", "−50%"],
  ["ISIS 388626: GGCATGAGCTTC 2-8-2 MOE, SGLT2 (eG*eG*d[5mC]*dA*dT*dG*dA*dG*d[5mC]*dT*eT*e[5mC])", "−60%"],
  ["ISIS 379699: GGCATGAGCTTC 1-10-1 MOE, SGLT2 (eG*dG*d[5mC]*dA*dT*dG*dA*dG*d[5mC]*dT*dT*e[5mC])", "−60%"]
]}

## Task Dear colleague, I am looking for the recorded % change in SGLT2 expression relative to saline of the following substance: ISIS 379692: 1-10-1 MOE gapmer, SGLT2 (eT*dG*dT*dT*d[5mC]*d[5mC]*dA*dG*d[5mC]*d[5mC]*d[5mC]*eA)
## Result −75%

## Task Entry to check: ISIS 388625: TGTTCCAGCCCA 2-8-2 MOE Gapmer, SGLT2 (eT*eG*dT*dT*d[5mC]*d[5mC]*dA*dG*d[5mC]*d[5mC]*e[5mC]*eA)
## Result −88%

## Task Same thing, different substance: ISIS 379702 (eG*d[5mC]*dA*d[5mC]*dA*d[5mC]*dA*dG*d[5mC]*dT*dG*e[5mC])
## Result −65%

----------
tested on: rat DGAT2 mRNA; assay: Dose-dependent inhibition of DGAT2 in A10 cells (Tables 82, 83); type: cell-based; conditions: 1.85 nM (Table 83)
Strand notation (5' to 3'): a small letter for the sugar, then the base; units joined by * are phosphorothioate-linked, units joined directly phosphodiester-linked; [ ] holds rarer units or linkages, { } end groups; capitals alone tell only the bases. e = 2'-O-(2-methoxyethyl) (MOE); [5mC] = 5-methylcytosine; d = 2'-deoxy (DNA)
The entries below are paired with their reported percent inhibition of rat DGAT2.
The figure you give is taken to be in %; do not add the unit.

{"columns": ["substance", "measurement units", "percent inhibition of rat DGAT2"],
 "data": [
  ["372546 (antisense eT*eT*eG*dG*dT*d[5mC]*dT*dT*dG*dT*dG*dA*dT*eT*eG*eT) [compound 372546]", "%", 2],
  ["372501 (antisense eT*eT*eG*dT*dG*dT*dG*dT*d[5mC]*dT*dT*d[5mC]*dA*e[5mC]*e[5mC]*eA) [compound 372501]", "%", 5],
  ["372500 (antisense eG*eT*eG*dT*dG*dT*d[5mC]*dT*dT*d[5mC]*dA*d[5mC]*d[5mC]*eA*eG*e[5mC]) [compound 372500]", "%", 0],
  ["372618 (antisense eG*eT*dG*dG*dT*dA*d[5mC]*dA*dG*dG*dT*d[5mC]*eG*eA) [compound 372618]", "%", 0],
  ["372530 (antisense eT*e[5mC]*eG*dG*d[5mC]*d[5mC]*d[5mC]*d[5mC]*dA*dG*dG*dA*dG*e[5mC]*e[5mC]*e[5mC]) [compound 372530]", "%", 2]
]}

Here is another substance to look at.
## Task Which value of percent inhibition of rat DGAT2 has been reported for 372594 (antisense eA*e[5mC]*dA*dG*dA*dA*dG*dG*d[5mC]*dA*d[5mC]*d[5mC]*e[5mC]*eA) [compound 372594] in the records?
## Result 0

----------
system: mouse SGLT2 mRNA; test: Mouse SGLT2 mRNA in kidney, additional 1-10-1 and 2-8-2 MOE gapmers (Table 68); type: in vivo; details: 0.5 umol/kg i.p. twice per week for three weeks, Balb/c mouse kidney
Strand notation (5' to 3'): a small letter for the sugar, then the base; units joined by * are phosphorothioate-linked, units joined directly phosphodiester-linked; [ ] holds rarer units or linkages, { } end groups; capitals alone tell only the bases. e = 2'-O-(2-methoxyethyl) (MOE); [5mC] = 5-methylcytosine; d = 2'-deoxy (DNA)
Hi! Just check whether % change in SGLT2 expression relative to saline is below -80%. Below gives Criterion met, equal or above gives Criterion not met.

{"columns": ["substance", "assigned label"],
 "data": [
  ["ISIS 379702 (eG*d[5mC]*dA*d[5mC]*dA*d[5mC]*dA*dG*d[5mC]*dT*dG*e[5mC])", "Criterion not met"]
]}

## Task Does ISIS 388625: TGTTCCAGCCCA 2-8-2 MOE Gapmer, SGLT2 (eT*eG*dT*dT*d[5mC]*d[5mC]*dA*dG*d[5mC]*d[5mC]*e[5mC]*eA) have % change in SGLT2 expression relative to saline strictly under -80%?
## Result Criterion met

## Task Moving on to the next substance: ISIS 379692: 1-10-1 MOE gapmer, SGLT2 (eT*dG*dT*dT*d[5mC]*d[5mC]*dA*dG*d[5mC]*d[5mC]*d[5mC]*eA)
## Result Criterion met

## Task For ISIS 379699: GGCATGAGCTTC 1-10-1 MOE, SGLT2 (eG*dG*d[5mC]*dA*dT*dG*dA*dG*d[5mC]*dT*dT*e[5mC]) then?
## Result Criterion not met

## Task What would you report for ISIS 388627 (eG*e[5mC]*dA*d[5mC]*dA*d[5mC]*dA*dG*d[5mC]*dT*eG*e[5mC]) ?
## Result Criterion not met

----------
Reported % Inhibition Range values for a set of substances
system: PCSK9 mRNA; type: cell-based, human; conditions: Hep3B cells, 100 nM, relative to untreated control cells
Strand notation (5' to 3'): a small letter for the sugar, then the base; units joined by * are phosphorothioate-linked, units joined directly phosphodiester-linked; [ ] holds rarer units or linkages, { } end groups; capitals alone tell only the bases. e = 2'-O-(2-methoxyethyl) (MOE); [5mC] = 5-methylcytosine; d = 2'-deoxy (DNA)

{"columns": ["substance", "reported endpoint", "result"],
 "data": [
  ["400330 (antisense e[5mC]*e[5mC]*dA*d[5mC]*dG*dT*dG*dG*dG*d[5mC]*dA*dG*e[5mC]*eA) [compound 400330]", "% Inhibition Range", "40-50%"],
  ["400362 (antisense e[5mC]*eG*dG*d[5mC]*dA*dG*d[5mC]*dA*dG*dA*dT*dG*eG*e[5mC]) [compound 400362]", "% Inhibition Range", "10-20%"],
  ["400353 (antisense eA*e[5mC]*dA*d[5mC]*d[5mC]*d[5mC]*dT*d[5mC]*dA*d[5mC]*d[5mC]*d[5mC]*e[5mC]*e[5mC]) [compound 400353]", "% Inhibition Range", "10-20%"],
  ["400354 (antisense eG*eA*d[5mC]*dA*d[5mC]*d[5mC]*d[5mC]*dT*d[5mC]*dA*d[5mC]*d[5mC]*e[5mC]*e[5mC]) [compound 400354]", "% Inhibition Range", "10-20%"]
]}

## Task Would you mind telling me what % Inhibition Range value was observed for 400329 (antisense e[5mC]*eA*d[5mC]*dG*dT*dG*dG*dG*d[5mC]*dA*dG*d[5mC]*eA*eG) [compound 400329] ?
## Result 10-20%

## Task Now try 400304 (antisense eG*eA*dG*dA*dT*dA*d[5mC]*dA*d[5mC]*d[5mC]*dT*d[5mC]*e[5mC]*eA) [compound 400304] .
## Result 10-20%

## Task Next substance: 400308 (antisense e[5mC]*e[5mC]*dG*dG*d[5mC]*d[5mC]*dG*d[5mC]*dT*dG*dA*d[5mC]*e[5mC]*eA) [compound 400308]
## Result 50-60%

## Task Consider next the substance 400365 (antisense e[5mC]*eT*d[5mC]*d[5mC]*dG*dG*d[5mC]*dA*dG*d[5mC]*dA*dG*eA*eT) [compound 400365] in the same way.
## Result 20-30%

## Task Param item: 400327 (antisense eG*eT*d[5mC]*d[5mC]*d[5mC]*d[5mC]*dA*dA*dA*dG*dT*d[5mC]*e[5mC]*e[5mC]) [compound 400327]
## Result 30-40%

## Task Cool, now 400312 (antisense e[5mC]*eA*dT*d[5mC]*d[5mC]*d[5mC]*dG*dG*d[5mC]*d[5mC]*dG*d[5mC]*eT*eG) [compound 400312]
## Result 20-30%
